tested on: MDA-MB-231; assay: Cell viability, EZ-Cytox tetrazolium assay, MDA-MB-231; type: cell-based, human; conditions: Homo sapiens, MDA-MB-231; 72 hours
Where a name gives a salt, the structure may show the parent alone.
QUANTITY_KIND: GI50 (nM)
Please give a number only; it is taken to be in nM.

Query block: Given the entry O=C1Nc2ccc(F)cc2/C1=C1/Nc2ccccc2/C1=N\OCCN1CCCCC1 [Compound 35, hydrochloride] , report its measured GI50.
Result block: 805

Query block: Given the entry CN1CCN(CCO/N=C2/C(=C3/C(=O)Nc4ccc([N+](=O)[O-])cc43)Nc3ccc(O)cc32)CC1 [Compound 14, dihydrochloride] , report its measured GI50.
Result block: 29.1

Query block: Given the entry CN1CCN(CCO/N=C2/C(=C3/C(=O)Nc4ccccc43)Nc3ccccc32)CC1 [Compound 29, dihydrochloride] , report its measured GI50.
Result block: 483

---
Query block: Given the entry O=C1Nc2ccc([N+](=O)[O-])cc2/C1=C1/Nc2ccc(O)cc2/C1=N\O , report its measured GI50.
Result block: 568
